biological target: CCR-3 (Homo sapiens); assay: Eotaxin-induced chemotaxis of CCR-3 transfectant cells (CCR3/U937); type: cell-based; design: expressed in transfected cells; host or cells: U937; settings: test compound 0.1 µg/ml; eotaxin 1 x 10^-9 M; CCR3/U937 transfectants; 37 °C, 1 hour
assay-endpoint: Chemotaxis Assay 0.1 µg/ml (inhibition %)

>  <molecule>
C=C(C)C[N+](CC)(CCCNC(=O)Nc1ccccc1)CCc1cccc(Cl)c1.[I-] (stereo not drawn)

>  <observed-measurement>
92

$$$$
>  <molecule>
CC[N+](CCCNC(=O)Nc1ccc(Br)cc1)(CCOCCOC)CCc1cccc(Cl)c1.[I-] (stereo not drawn)

>  <observed-measurement>
100

$$$$
>  <molecule>
CC[N+](CCF)(CCCNC(=O)Nc1ccc(Br)cc1)CCc1ccc(Cl)cc1.[I-] (stereo not drawn)

>  <observed-measurement>
68

$$$$

---

target: CCR-3 (Homo sapiens, UniProt P51677); experiment: Eotaxin-induced chemotaxis of CCR-3 transfectant cells (CCR3/U937); type: cell-based; set-up: expressed in transfected cells; host or cells: U937; settings: U-937; 10 µM test compound; eotaxin 1 x 10^-9 M; CCR3/U937 cells (Table 3a)

>  <compound>
O=C(O)CCCN(CCCNC(=O)Nc1ccc(Br)cc1)[C@@H]1CCc2ccccc21

>  <inhibition at 10 µM>
100%

$$$$
>  <compound>
NC(=O)CCCN(CCCNC(=O)Nc1ccc(Br)cc1)C1CCCc2ccccc21 (stereo not drawn)

>  <inhibition at 10 µM>
100%

$$$$
>  <compound>
O=C(O)CCCN(CCCNC(=O)Nc1ccc(I)cc1)C1CCCc2ccccc21 (stereo not drawn)

>  <inhibition at 10 µM>
100%

$$$$
>  <compound>
COC(=O)CCCN(CCCNC(=O)Nc1ccc(Br)cc1)Cc1cccs1

>  <inhibition at 10 µM>
78%

$$$$
>  <compound>
O=C(NCCCN(CCCc1nnnn1C(c1ccccc1)(c1ccccc1)c1ccccc1)C1CCCc2ccccc21)Nc1ccc(Br)cc1 (stereo not drawn)

>  <inhibition at 10 µM>
87%

$$$$
>  <compound>
O=C(NCCCN(CCCCO)C1CCCc2ccccc21)Nc1ccc(Br)cc1 (stereo not drawn)

>  <inhibition at 10 µM>
100%

$$$$

---

Molecular target: CCR-3 (Homo sapiens, UniProt P51677)
Sequence (P51677 1-355): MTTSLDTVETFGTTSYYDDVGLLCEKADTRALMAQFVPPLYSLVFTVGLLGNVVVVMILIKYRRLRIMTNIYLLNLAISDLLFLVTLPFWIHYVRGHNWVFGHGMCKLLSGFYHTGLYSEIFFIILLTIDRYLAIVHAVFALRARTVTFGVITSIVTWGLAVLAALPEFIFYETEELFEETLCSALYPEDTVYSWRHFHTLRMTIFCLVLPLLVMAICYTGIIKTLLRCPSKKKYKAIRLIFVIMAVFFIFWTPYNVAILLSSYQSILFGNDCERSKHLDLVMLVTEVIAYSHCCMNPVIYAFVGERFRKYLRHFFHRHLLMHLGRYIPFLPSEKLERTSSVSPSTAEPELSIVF
Assay: Eotaxin-induced chemotaxis of CCR-3 transfectant cells (CCR3/U937)
Assay type: cell-based
Set-up: expressed in transfected cells; host or cells: U937
Details: 10 µM test compound; eotaxin 1 x 10^-9 M; CCR3/U937 cells (Table 3a)
Measured Chemotaxis Assay 10 µM (inhibition %), listed per entry for reference.
assay-endpoint: Chemotaxis Assay 10 µM (inhibition %)

>  <compound>
COc1cc(CN(CCCNC(=O)Nc2ccccc2)CCc2ccc(Cl)cc2)cc(OC)c1

>  <observed-measurement>
56

$$$$
>  <compound>
O=C(O)CCCN(CCCNC(=O)Nc1ccc(Br)cc1)C1Cc2ccccc2C1

>  <observed-measurement>
100

$$$$
>  <compound>
CCN(CCCNC(=O)Nc1ccccc1)C1CCc2ccccc21 (centres unmarked)

>  <observed-measurement>
89

$$$$
>  <compound>
CC(C)(Cc1ccccc1)N(CCCNC(=O)Nc1ccc(Br)cc1)CCCC(=O)O

>  <observed-measurement>
50

$$$$
>  <compound>
O=C(O)CCCN(CCCNC(=O)Nc1ccc(Br)cc1)C1CCc2ccccc21 (centres unmarked) [Compound 173]

>  <observed-measurement>
100

$$$$
>  <compound>
CC(C)CN(CCCNC(=O)Nc1ccccc1)CCc1ccc(Cl)cc1

>  <observed-measurement>
100

$$$$
>  <compound>
O=C(O)CCCN(CCCNC(=O)Nc1ccc(OC(F)(F)F)cc1)C1CCCc2ccccc21 (centres unmarked)

>  <observed-measurement>
100

$$$$
>  <compound>
COC(=O)CCCN(CCCNC(=O)Nc1ccccc1)CCc1ccc(Cl)cc1 [Compound 49]

>  <observed-measurement>
100

$$$$
>  <compound>
O=C(O)CCCN(CCCNC(=O)Nc1ccc(-c2ccccc2)cc1)C1CCCc2ccccc21 (centres unmarked)

>  <observed-measurement>
76

$$$$
>  <compound>
COC(=O)CCCCN(CCCNC(=O)Nc1ccccc1)CCc1ccc(Cl)cc1

>  <observed-measurement>
100

$$$$
>  <compound>
O=C(O)CCCN(CCCNC(=O)Nc1ccc(Br)cc1)Cc1ccco1

>  <observed-measurement>
31

$$$$
>  <compound>
COC(=O)CCCN(CCCNC(=O)Nc1ccc(Oc2ccccc2)cc1)C1CCCc2ccccc21 (centres unmarked)

>  <observed-measurement>
100.

$$$$
>  <compound>
CSc1cccc(NC(=O)NCCCN(CCCC(=O)O)C2CCCc3ccccc32)c1 (centres unmarked)

>  <observed-measurement>
100

$$$$
>  <compound>
O=C(O)CCCN(CCCNC(=O)Nc1ccc(F)cc1)C1CCCc2ccccc21 (centres unmarked)

>  <observed-measurement>
100

$$$$
>  <compound>
NC(=O)CCN(CCCNC(=O)Nc1ccccc1)CCc1ccc(Cl)cc1

>  <observed-measurement>
84

$$$$
>  <compound>
O=C(NCCCN(CCCO)C1CCCc2ccccc21)Nc1ccc(Br)cc1 (centres unmarked)

>  <observed-measurement>
100

$$$$
>  <compound>
CC(c1ccccc1)N(CCCNC(=O)Nc1ccc(Br)cc1)CCCC(=O)O (centres unmarked)

>  <observed-measurement>
76

$$$$
>  <compound>
COC(=O)CCCN(CCCNC(=O)Nc1ccccc1)C1CCCc2ccccc21 (centres unmarked)

>  <observed-measurement>
100

$$$$
>  <compound>
COC(=O)CCCN(CCCNC(=O)Nc1ccccc1Br)C(C)(C)c1ccccc1

>  <observed-measurement>
100

$$$$
>  <compound>
COC(=O)CCCN(CCCNC(=O)Nc1cccc(Br)c1)C1CCCc2ccccc21 (centres unmarked)

>  <observed-measurement>
100

$$$$
>  <compound>
O=C(O)CCCN(CCCNC(=O)Nc1ccc(C(=O)O)cc1)C1CCCc2ccccc21 (centres unmarked)

>  <observed-measurement>
91

$$$$
>  <compound>
CCN(CCCCNC(=O)Nc1ccccc1)CCc1ccc(Cl)cc1

>  <observed-measurement>
99

$$$$
>  <compound>
CSc1ccc(NC(=O)NCCCN(CCCC(=O)O)C2CCCc3ccccc32)cc1 (centres unmarked)

>  <observed-measurement>
100

$$$$
>  <compound>
O=C(O)CCCN(CCCNC(=O)Nc1ccc(Br)cc1)Cc1cccs1

>  <observed-measurement>
81

$$$$
>  <compound>
O=C(O)CCCN(CCCNC(=O)Nc1ccc(Br)cc1)C1CCc2ccccc21 (centres unmarked) [Compound 177]

>  <observed-measurement>
89

$$$$
>  <compound>
O=C(NCCCN(CCc1ccc(Cl)cc1)Cc1ccncc1)Nc1ccccc1

>  <observed-measurement>
100

$$$$
>  <compound>
O=C(O)CCCN(CCCNC(=O)Nc1ccc(Br)cc1)C1c2ccccc2CC1O (centres unmarked)

>  <observed-measurement>
88

$$$$
>  <compound>
O=C(NCCCN(Cc1ccc(C(=O)O)cc1)C1CCCc2ccccc21)Nc1ccc(Br)cc1 (centres unmarked)

>  <observed-measurement>
86

$$$$
>  <compound>
COC(=O)CCCN(CCCCNC(=O)Nc1ccc(Br)cc1)C1CCCc2ccccc21 (centres unmarked)

>  <observed-measurement>
99

$$$$

Attribution: patent EP1200395B1
